System: H1 or H9 human embryonic stem cells
Method description: Activin A bioassay: differentiation of human embryonic stem cells to definitive endoderm, cell number and SOX17 intensity by high content analysis (96-well, four days)
Assay type: cell-based
Settings: supernatant concentration 10x, assay dilution 1:20; control = R&D Sys Activin A 100 ng/ml on same plate
Metric: Sox 17 Intensity % of control (%)
Answer format: numeric, % implied, no suffix.

As a guide, the following entries are already answered.
• ACTN36: activin A variant peptide, SEQ ID 37 (protein) GLECDGKVNLCCKKQDFVSFKDIGWNDWIIAPSGYHANRCSGKCPSHIAGTSGSSLSFHSTVINHYRMRGHSPFANMGACCVPTKLRPMSMLYYDDGQNIIKKDIQNMIVEECGCS = 18.4
• ACTN75: activin A variant peptide, SEQ ID 76 (protein) GLECDGKVNICCKKQSFGQAKDIGWNDWIIAPSGYHGGGCSGECPSHIAGTSGSSLSFHSTVINHYRMRGHSPWANLKSCCSPTKLRPMSMLYYDDGQNIIKKDIQRMKVEECGCT = 1.7

-- ask Bench note: what Sox 17 Intensity % of control did ACTN5: activin A variant peptide, SEQ ID 6 (protein) GLECDGKVNYCCKKQNFVSFKDIGWNDWIIAPSGYHANECSGKCPSHIAGTSGSSLSFHSTVINHYRMRGHSPFSNLGACCIPTKLRPMSMLYYDDGQNIIKKDIQNMIVEECGCS show?
-- reply 5.6
